Molecular target: human CD33 G318A (human, UniProt P20138 18-364)
Sequence (P20138 18-364 G318A limits assumed): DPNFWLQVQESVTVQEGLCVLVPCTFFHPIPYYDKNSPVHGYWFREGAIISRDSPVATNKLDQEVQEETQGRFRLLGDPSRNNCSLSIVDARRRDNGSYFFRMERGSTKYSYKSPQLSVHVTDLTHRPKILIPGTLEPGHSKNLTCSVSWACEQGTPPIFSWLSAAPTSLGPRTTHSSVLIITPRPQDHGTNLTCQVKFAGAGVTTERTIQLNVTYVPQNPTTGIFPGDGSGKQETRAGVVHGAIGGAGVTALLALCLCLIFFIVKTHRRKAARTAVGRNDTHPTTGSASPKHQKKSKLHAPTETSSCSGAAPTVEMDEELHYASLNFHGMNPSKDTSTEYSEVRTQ
Test: flow cytometry, alanine scan
Measured Parameter: Mean % WT Binding

Lab book: Mean % WT Binding of Refmab #4 (antibody, V domains shown, The alanine scan used IgG or Fab) VH: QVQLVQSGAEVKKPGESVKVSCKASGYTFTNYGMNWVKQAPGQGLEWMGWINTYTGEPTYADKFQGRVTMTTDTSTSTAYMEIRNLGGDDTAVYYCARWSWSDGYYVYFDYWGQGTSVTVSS VL: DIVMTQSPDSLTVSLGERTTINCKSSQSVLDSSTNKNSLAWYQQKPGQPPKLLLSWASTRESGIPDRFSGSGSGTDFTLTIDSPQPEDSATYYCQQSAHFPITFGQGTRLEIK noted as 92.2 % of WT
